Record form. Attribute: Fibrin % inhibition. Fill in for each entry.
- System: fibrin-induced microglia activation
- Test details: Image-based assay of fibrin-induced microglia activation (HTS and dose response)
- Type: cell-based, rat
- Protocol conditions: primary microglia HTS, 10 μM, fibrin-stimulated, cell size >800 μm^2 as marker of activation
Counter-ions that a name gives are not always drawn.
// units = %; emit number, no label

Entry CCCCC/C=C\CCC(=O)N[C@H]1[C@H](Oc2c3cc4cc2Oc2ccc(cc2Cl)[C@@H](O[C@@H]2O[C@H](CO)[C@@H](O)[C@H](O)[C@H]2NC(C)=O)[C@@H]2NC(=O)[C@H](NC(=O)[C@@H]4NC(=O)[C@H]4NC(=O)[C@@H](Cc5ccc(c(Cl)c5)O3)NC(=O)[C@H](N)c3ccc(O)c(c3)Oc3cc(O)cc4c3)c3ccc(O)c(c3)-c3c(O[C@H]4O[C@H](CO)[C@@H](O)[C@H](O)[C@@H]4O)cc(O)cc3[C@@H](C(=O)O)NC2=O)O[C@H](CO)[C@@H](O)[C@@H]1O [Teicoplanin [a(2-1) Shown]] needs its Fibrin % inhibition filled in; supply it.
43

Entry CC1(O)CCC(C(C)(C)O)CC1.O (stereo not drawn) [Terpene Hydrate] needs its Fibrin % inhibition filled in; supply it.
−6

Entry COC(=O)[C@@H]1[C@H]2C[C@H]3c4[nH]c5ccccc5c4CCN3C[C@@H]2CC[C@@H]1O [Yohimbine] needs its Fibrin % inhibition filled in; supply it.
4

Entry CC(C)(C)NC[C@H](O)COc1nsnc1N1CCOCC1 [Timolol Maleate] needs its Fibrin % inhibition filled in; supply it.
−4

Entry CCNC1(c2cccs2)CCCCC1=O.Cl (stereo not drawn) [Tiletamine Hydrochloride] needs its Fibrin % inhibition filled in; supply it.
8

Entry C[C@H](Cn1cnc2c(N)ncnc21)OCP(=O)(O)O needs its Fibrin % inhibition filled in; supply it.
−10

###

- System: primary rat microglia
- Protocol conditions: rat
Where a name gives a salt, the structure may show the parent alone.
Record form. Attribute: LPS % cell toxicity. Fill in for each entry.
// units = %; emit number, no label

Entry COc1ccc([C@@H]2Sc3ccccc3N(CCN(C)C)C(=O)[C@@H]2OC(C)=O)cc1 [Diltiazem Hydrochloride] needs its LPS % cell toxicity filled in; supply it.
0

Entry OC(CCN1CCCCC1)(c1ccccc1)c1ccccc1 [Pridinol] needs its LPS % cell toxicity filled in; supply it.
0

Entry CC[C@H]1OC(=O)[C@H](C)[C@@H](O[C@H]2C[C@@](C)(OC)[C@@H](O)[C@H](C)O2)[C@H](C)[C@@H](O[C@@H]2O[C@H](C)C[C@H](N(C)C)[C@H]2O)[C@](C)(OC)C[C@@H](C)C(=O)[C@H](C)[C@@H](O)[C@]1(C)O [Clarithromycin] needs its LPS % cell toxicity filled in; supply it.
0

Entry OCCN1CCN(CCCN2c3ccccc3Sc3ccc(Cl)cc32)CC1 [Perphenazine] needs its LPS % cell toxicity filled in; supply it.
1

Entry CC1(C)NC(=O)N(c2ccc([N+](=O)[O-])c(C(F)(F)F)c2)C1=O [Nilutamide] needs its LPS % cell toxicity filled in; supply it.
0

Entry NC(=O)NC1NC(=O)NC1=O (stereo not shown) [Allantoin] needs its LPS % cell toxicity filled in; supply it.
0

Entry CC(C)(C)NC(=O)[C@@H]1C[C@@H]2CCCC[C@@H]2CN1C[C@@H](O)[C@H](Cc1ccccc1)NC(=O)[C@H](CC(N)=O)NC(=O)c1ccc2ccccc2n1 [Saquinavir, reference compound] needs its LPS % cell toxicity filled in; supply it.
1

Entry Nc1ccc2cc3ccc(N)cc3nc2c1 [Proflavine] needs its LPS % cell toxicity filled in; supply it.
59

Entry O=c1cccc2n1C[C@@H]1CNC[C@H]2C1 [Cytisine] needs its LPS % cell toxicity filled in; supply it.
1

Entry Clc1ccc(COC(Cn2ccnc2)c2ccc(Cl)cc2Cl)cc1 (stereo not shown) [Econazole] needs its LPS % cell toxicity filled in; supply it.
0

Entry S=P(N1CC1)(N1CC1)N1CC1 [Thiotepa] needs its LPS % cell toxicity filled in; supply it.
1

Entry COCCCOc1ccnc(C[S+]([O-])c2nc3ccccc3[nH]2)c1C (stereo not shown) [Rabeprazole] needs its LPS % cell toxicity filled in; supply it.
0

Entry NC1=NCC2c3ccccc3Cc3ccccc3N12 (stereo not shown) [Epinastine] needs its LPS % cell toxicity filled in; supply it.
0

Entry C=C[C@H]1C[N@@]2CC[C@H]1C[C@H]2[C@H](O)c1ccnc2ccc(OC)cc12 [Quinine] needs its LPS % cell toxicity filled in; supply it.
0

Entry CC(=O)Nc1ccc(CC(=O)O)cc1 [Actarit] needs its LPS % cell toxicity filled in; supply it.
0

Entry CC[C@H]1[C@@H]2C[C@H]3[C@@H]4N(C)c5ccccc5[C@]45C[C@@H]([C@H]2[C@H]5O)N3[C@@H]1O [Ajmaline] needs its LPS % cell toxicity filled in; supply it.
0

Entry C1CNCCN1 [Piperazine] needs its LPS % cell toxicity filled in; supply it.
0

Entry C[C@H]1c2cccc(O)c2C(=O)C2=C(O)[C@]3(O)C(=O)C(C(N)=O)=C(O)[C@@H](N(C)C)[C@@H]3[C@@H](O)[C@@H]21 [Doxycycline] needs its LPS % cell toxicity filled in; supply it.
0

Entry CC[C@@H](CO)NC(=O)[C@@H]1C=C2c3cccc4[nH]cc(c34)C[C@H]2N(C)C1 [Methylergometrine] needs its LPS % cell toxicity filled in; supply it.
0

Entry Cc1c(Cl)cccc1Nc1ccccc1C(=O)O [Tolfenamic Acid] needs its LPS % cell toxicity filled in; supply it.
1

Entry CS(=O)(=O)OCCCCOS(C)(=O)=O [Busulfan] needs its LPS % cell toxicity filled in; supply it.
0

Entry COc1ccc(CC2c3cc(OC)c(OC)cc3CC[N+]2(C)CCC(=O)OCCCCCOC(=O)CC[N+]2(C)CCc3cc(OC)c(OC)cc3C2Cc2ccc(OC)c(OC)c2)cc1OC (stereo not shown) [Atracurium Besylate] needs its LPS % cell toxicity filled in; supply it.
0

Entry Cn1c([N+](=O)[O-])cnc1COC(N)=O [Ronidazole] needs its LPS % cell toxicity filled in; supply it.
0

Entry O=C1CCC(N2C(=O)c3ccccc3C2=O)C(=O)N1 (stereo not shown) [Thalidomide] needs its LPS % cell toxicity filled in; supply it.
1

Entry CC1(C)S[C@@H]2[C@H](NC(=O)[C@H](NC(=O)N3CCNC3=O)c3ccccc3)C(=O)N2[C@H]1C(=O)O [Azlocillin] needs its LPS % cell toxicity filled in; supply it.
1

Entry NCc1cccnc1 [Picolamine] needs its LPS % cell toxicity filled in; supply it.
0

Entry O=C(CCCN1CCC(O)(c2ccc(Cl)cc2)CC1)c1ccc(F)cc1 [Haloperidol] needs its LPS % cell toxicity filled in; supply it.
1

Entry C=CCNC(N)=S [Allylthiourea] needs its LPS % cell toxicity filled in; supply it.
0

Entry CCOC(=O)[C@H](CCc1ccccc1)N[C@@H](C)C(=O)N1CCC[C@H]1C(=O)O [Enalapril] needs its LPS % cell toxicity filled in; supply it.
1

Entry CC1(C)S[C@@H]2[C@H](NC(=O)COc3ccccc3)C(=O)N2[C@H]1C(=O)O [Phenoxymethylpenicillin] needs its LPS % cell toxicity filled in; supply it.
0

Entry O=C1[C@H](CC[C@H](O)c2ccc(F)cc2)[C@@H](c2ccc(O)cc2)N1c1ccc(F)cc1 [Ezetimibe] needs its LPS % cell toxicity filled in; supply it.
0

Entry CCCCOCCOCCOCc1cc2c(cc1CCC)OCO2 [Piperonyl Butoxide] needs its LPS % cell toxicity filled in; supply it.
0

Entry CN1CCN(c2cc3c(cc2F)c(=O)c(C(=O)O)cn3-c2ccc(F)cc2)CC1 [Difloxacin Hydrochloride] needs its LPS % cell toxicity filled in; supply it.
1

Entry Cc1cccc(C)c1OCC(C)N (stereo not shown) [Mexiletine] needs its LPS % cell toxicity filled in; supply it.
0
